tested on: Caenorhabditis elegans; assay: Tested in vitro for the biological efficacy using Caenorhabditis elegans binding assay; assay type: functional, organism-based
Kindly supply the reported IC50 values for the records listed here.
One number for each entry, in ng/mL.

Examples with answers:
Compound	IC50 (ng/mL)
CCC(C)[C@H]1O[C@]2(C=C[C@@H]1C)C[C@@H]1C[C@@H](C/C=C(\C)[C@@H](O[C@H]3C[C@H](OC)[C@@H](O[C@H]4C[C@H](OC)[C@H](S(C)(=O)=O)[C@H](C)O4)[C@H](C)O3)[C@@H](C)/C=C/C=C3\CO[C@@H]4[C@H](O)C(C)=C[C@@H](C(=O)O1)[C@]34O)O2 (stereo partly specified)	0.132
CCC(C)[C@H]1O[C@]2(CC[C@@H]1C)C[C@@H]1C[C@@H](C/C=C(\C)[C@@H](O[C@H]3C[C@H](OC)[C@@H](O[C@H]4C[C@H](OC)[C@H](S(=O)(=O)CCO)[C@H](C)O4)[C@H](C)O3)[C@@H](C)/C=C/C=C3\CO[C@@H]4[C@H](O)C(C)=C[C@@H](C(=O)O1)[C@]34O)O2 (stereo partly specified)	0.119
CCC(C)[C@H]1O[C@]2(C=C[C@@H]1C)C[C@@H]1C[C@@H](C/C=C(\C)[C@@H](O[C@H]3C[C@H](OC)[C@@H](O[C@H]4C[C@H](OC)[C@H](SCCNC(C)=O)[C@H](C)O4)[C@H](C)O3)[C@@H](C)/C=C/C=C3\CO[C@@H]4[C@H](O)C(C)=C[C@@H](C(=O)O1)[C@]34O)O2 (stereo partly specified)	0.127
CCC(C)[C@H]1O[C@]2(C=C[C@@H]1C)C[C@@H]1C[C@@H](C/C=C(\C)[C@@H](O[C@H]3C[C@H](OC)[C@@H](O[C@H]4C[C@H](OC)[C@@H](SCCO)[C@H](C)O4)[C@H](C)O3)[C@@H](C)/C=C/C=C3\CO[C@@H]4[C@H](O)C(C)=C[C@@H](C(=O)O1)[C@]34O)O2 (stereo partly specified)	0.091
CCC(C)[C@H]1O[C@]2(C=C[C@@H]1C)C[C@@H]1C[C@@H](C/C=C(\C)[C@@H](O[C@H]3C[C@H](OC)[C@@H](O[C@H]4C[C@H](OC)[C@H](SCCOC(C)=O)[C@H](C)O4)[C@H](C)O3)[C@@H](C)/C=C/C=C3\CO[C@@H]4[C@H](O)C(C)=C[C@@H](C(=O)O1)[C@]34O)O2 (stereo partly specified)	0.525

Continue with the next compound.
IN: Read off the recorded IC50 for CCC(C)[C@H]1O[C@]2(C=C[C@@H]1C)C[C@@H]1C[C@@H](C/C=C(\C)[C@@H](O[C@H]3C[C@H](OC)[C@@H](O[C@H]4C[C@H](OC)[C@@H](SCC(C)O)[C@H](C)O4)[C@H](C)O3)[C@@H](C)/C=C/C=C3\CO[C@@H]4[C@H](O)C(C)=C[C@@H](C(=O)O1)[C@]34O)O2 (stereo partly specified)
OUT: 0.153

###

tested on: Caenorhabditis elegans; assay: Tested in vitro for the biological efficacy using Caenorhabditis elegans binding assay; assay type: functional, organism-based
Quantity Name: IC50 (ng/mL)
Numbers only, in ng/mL.

Worked examples follow.
Compound	Study System	Measured Number
CCC(C)[C@H]1O[C@]2(C=C[C@@H]1C)C[C@@H]1C[C@@H](C/C=C(\C)[C@@H](O[C@H]3C[C@H](OC)[C@@H](O[C@H]4C[C@H](OC)[C@H]([S+](C)[O-])[C@H](C)O4)[C@H](C)O3)[C@@H](C)/C=C/C=C3\CO[C@@H]4[C@H](O)C(C)=C[C@@H](C(=O)O1)[C@]34O)O2 (stereo partly drawn)	Caenorhabditis elegans	0.262
CCC(C)[C@H]1O[C@]2(C=C[C@@H]1C)C[C@@H]1C[C@@H](C/C=C(\C)[C@@H](O[C@H]3C[C@H](OC)[C@@H](O)[C@H](C)O3)[C@@H](C)/C=C/C=C3\CO[C@@H]4[C@H](O)C(C)=C[C@@H](C(=O)O1)[C@]34O)O2 (stereo partly drawn)	Caenorhabditis elegans	0.81

Now for another entry.
IN: Give the reported IC50 for this compound. CCC(C)[C@H]1O[C@]2(C=C[C@@H]1C)C[C@@H]1C[C@@H](C/C=C(\C)[C@@H](O[C@H]3C[C@H](OC)[C@@H](O[C@H]4C[C@H](OC)[C@H](S(=O)(=O)CCO)[C@H](C)O4)[C@H](C)O3)[C@@H](C)/C=C/C=C3\CO[C@@H]4[C@H](O)C(C)=C[C@@H](C(=O)O1)[C@]34O)O2 (stereo partly drawn)
OUT: 0.363

###

Please respond with reported Reduction for every item in the list.
test system: Ovis aries; test: Tested for the anthelmintic efficacy against Ostertagia circumcincta at 0.1 mg/kg; range is 91-100%; assay type: functional
Give bare numbers, in %.

Molecule	Reduction (%)
CCC(C)[C@H]1O[C@]2(C=C[C@@H]1C)C[C@@H]1C[C@@H](C/C=C(\C)[C@@H](O[C@H]3C[C@H](OC)[C@@H](O[C@H]4C[C@H](OC)[C@H]([S+](C)[O-])[C@H](C)O4)[C@H](C)O3)[C@@H](C)/C=C/C=C3\CO[C@@H]4[C@H](O)C(C)=C[C@@H](C(=O)O1)[C@]34O)O2 (some centres not stated)	91

As a next step, examine the molecule that follows.
IN: Give the reported value of Reduction for this record: CCC(C)[C@H]1O[C@]2(C=C[C@@H]1C)C[C@@H]1C[C@@H](C/C=C(\C)[C@@H](O[C@H]3C[C@H](OC)[C@@H](O[C@H]4C[C@H](OC)[C@H](SCCNC(C)=O)[C@H](C)O4)[C@H](C)O3)[C@@H](C)/C=C/C=C3\CO[C@@H]4[C@H](O)C(C)=C[C@@H](C(=O)O1)[C@]34O)O2 (some centres not stated)
OUT: 91

###

Could you please report measured IC50 for the items listed next?
test system: Caenorhabditis elegans; test: Tested in vitro for the biological efficacy using Caenorhabditis elegans binding assay; assay type: functional, organism-based
One number for each entry, in ng/mL.

Below are worked cases with known answers.
Compound	Measured Number
CCC(C)[C@H]1O[C@]2(C=C[C@@H]1C)C[C@@H]1C[C@@H](C/C=C(\C)[C@@H](O[C@H]3C[C@H](OC)[C@@H](O[C@H]4C[C@H](OC)[C@@H](O)[C@H](C)O4)[C@H](C)O3)[C@@H](C)/C=C/C=C3\CO[C@@H]4[C@H](O)C(C)=C[C@@H](C(=O)O1)[C@]34O)O2 (stereo partly drawn)	0.073
CCC(C)[C@H]1O[C@]2(C=C[C@@H]1C)C[C@@H]1C[C@@H](C/C=C(\C)[C@@H](O[C@H]3C[C@H](OC)[C@@H](O[C@H]4C[C@H](OC)[C@@H](S(=O)(=O)CC)[C@H](C)O4)[C@H](C)O3)[C@@H](C)/C=C/C=C3\CO[C@@H]4[C@H](O)C(C)=C[C@@H](C(=O)O1)[C@]34O)O2 (stereo partly drawn)	0.123

IN: Supply reported IC50 belonging to this compound: CCC(C)[C@H]1O[C@]2(C=C[C@@H]1C)C[C@@H]1C[C@@H](C/C=C(\C)[C@@H](O[C@H]3C[C@H](OC)[C@@H](O[C@H]4C[C@H](OC)[C@H](SC)[C@H](C)O4)[C@H](C)O3)[C@@H](C)/C=C/C=C3\CO[C@@H]4[C@H](O)C(C)=C[C@@H](C(=O)O1)[C@]34O)O2 (stereo partly drawn)
OUT: 0.06

###

test system: Trichostrongylus colubriformis; experiment: Tested in vivo for the biological efficacy using Trichostrongylus colubriformis gerbil assay; type: functional
Would you mind telling me the reported ED85 of each entry?
Answers are plain numbers, in mg/kg.

Take a look at these entries with their results.
Molecule	Study System	Readout Unit	Measured Number
CCC(C)[C@H]1O[C@]2(C=C[C@@H]1C)C[C@@H]1C[C@@H](C/C=C(\C)[C@@H](O[C@H]3C[C@H](OC)[C@@H](O[C@H]4C[C@H](OC)[C@@H](S(C)(=O)=O)[C@H](C)O4)[C@H](C)O3)[C@@H](C)/C=C/C=C3\CO[C@@H]4[C@H](O)C(C)=C[C@@H](C(=O)O1)[C@]34O)O2 (stereo partly drawn)	Trichostrongylus colubriformis	mg/kg	0.125
CCC(C)[C@H]1O[C@]2(C=C[C@@H]1C)C[C@@H]1C[C@@H](C/C=C(\C)[C@@H](O[C@H]3C[C@H](OC)[C@@H](O[C@H]4C[C@H](OC)[C@H](SCCO)[C@H](C)O4)[C@H](C)O3)[C@@H](C)/C=C/C=C3\CO[C@@H]4[C@H](O)C(C)=C[C@@H](C(=O)O1)[C@]34O)O2 (stereo partly drawn)	Trichostrongylus colubriformis	mg/kg	0.063
CCC(C)[C@H]1O[C@]2(CC[C@@H]1C)C[C@@H]1C[C@@H](C/C=C(\C)[C@@H](O[C@H]3C[C@H](OC)[C@@H](O[C@H]4C[C@H](OC)[C@H](S(=O)(=O)CCO)[C@H](C)O4)[C@H](C)O3)[C@@H](C)/C=C/C=C3\CO[C@@H]4[C@H](O)C(C)=C[C@@H](C(=O)O1)[C@]34O)O2 (stereo partly drawn)	Trichostrongylus colubriformis	mg/kg	0.125
CCC(C)[C@H]1O[C@]2(C=C[C@@H]1C)C[C@@H]1C[C@@H](C/C=C(\C)[C@@H](O[C@H]3C[C@H](OC)[C@@H](O[C@H]4C[C@H](OC)[C@H](SC)[C@H](C)O4)[C@H](C)O3)[C@@H](C)/C=C/C=C3\CO[C@@H]4[C@H](O)C(C)=C[C@@H](C(=O)O1)[C@]34O)O2 (stereo partly drawn)	Trichostrongylus colubriformis	mg/kg	0.063

// input: 6 molecules below; output: ED85 for each
1. CCC(C)[C@H]1O[C@]2(C=C[C@@H]1C)C[C@@H]1C[C@@H](C/C=C(\C)[C@@H](O[C@H]3C[C@H](OC)[C@@H](O[C@H]4C[C@H](OC)[C@H]([S+]([O-])CCO)[C@H](C)O4)[C@H](C)O3)[C@@H](C)/C=C/C=C3\CO[C@@H]4[C@H](O)C(C)=C[C@@H](C(=O)O1)[C@]34O)O2 (stereo partly drawn)
2. CCC(C)[C@H]1O[C@]2(C=C[C@@H]1C)C[C@@H]1C[C@@H](C/C=C(\C)[C@@H](O[C@H]3C[C@H](OC)[C@H](SC)[C@H](C)O3)[C@@H](C)/C=C/C=C3\CO[C@@H]4[C@H](O)C(C)=C[C@@H](C(=O)O1)[C@]34O)O2 (stereo partly drawn)
3. CCC(C)[C@H]1O[C@]2(C=C[C@@H]1C)C[C@@H]1C[C@@H](C/C=C(\C)[C@@H](O[C@H]3C[C@H](OC)[C@H](SCCO)[C@H](C)O3)[C@@H](C)/C=C/C=C3\CO[C@@H]4[C@H](O)C(C)=C[C@@H](C(=O)O1)[C@]34O)O2 (stereo partly drawn)
4. CCC(C)[C@H]1O[C@]2(CC[C@@H]1C)C[C@@H]1C[C@@H](C/C=C(\C)[C@@H](O[C@H]3C[C@H](OC)[C@@H](O[C@H]4C[C@H](OC)[C@H]([S+]([O-])CCO)[C@H](C)O4)[C@H](C)O3)[C@@H](C)/C=C/C=C3\CO[C@@H]4[C@H](O)C(C)=C[C@@H](C(=O)O1)[C@]34O)O2 (stereo partly drawn)
5. CCC(C)[C@H]1O[C@]2(C=C[C@@H]1C)C[C@@H]1C[C@@H](C/C=C(\C)[C@@H](O[C@H]3C[C@H](OC)[C@@H](O[C@H]4C[C@H](OC)[C@@H](SCCCO)[C@H](C)O4)[C@H](C)O3)[C@@H](C)/C=C/C=C3\CO[C@@H]4[C@H](O)C(C)=C[C@@H](C(=O)O1)[C@]34O)O2 (stereo partly drawn)
6. CCC(C)[C@H]1O[C@]2(C=C[C@@H]1C)C[C@@H]1C[C@@H](C/C=C(\C)[C@@H](O[C@H]3C[C@H](OC)[C@@H](O[C@H]4C[C@H](OC)[C@@H](SCCNC(C)=O)[C@H](C)O4)[C@H](C)O3)[C@@H](C)/C=C/C=C3\CO[C@@H]4[C@H](O)C(C)=C[C@@H](C(=O)O1)[C@]34O)O2 (stereo partly drawn)

OUT:
[0.125, 0.125, 0.063, 0.25, 0.25, 0.063]

Consider the following items and state reported ED85 for each.
1. CCC(C)[C@H]1O[C@]2(C=C[C@@H]1C)C[C@@H]1C[C@@H](C/C=C(\C)[C@@H](O[C@H]3C[C@H](OC)[C@@H](O[C@H]4C[C@H](OC)[C@H](S(C)(=O)=O)[C@H](C)O4)[C@H](C)O3)[C@@H](C)/C=C/C=C3\CO[C@@H]4[C@H](O)C(C)=C[C@@H](C(=O)O1)[C@]34O)O2 (stereo partly drawn)
2. CCC(C)[C@H]1O[C@]2(C=C[C@@H]1C)C[C@@H]1C[C@@H](C/C=C(\C)[C@@H](O[C@H]3C[C@H](OC)[C@@H](O[C@H]4C[C@H](OC)[C@H](SCCOC(C)=O)[C@H](C)O4)[C@H](C)O3)[C@@H](C)/C=C/C=C3\CO[C@@H]4[C@H](O)C(C)=C[C@@H](C(=O)O1)[C@]34O)O2 (stereo partly drawn)

OUT:
1: 0.063; 2: 0.125
